- targetOrSystem: Androgen receptor (Homo sapiens)
- methodDescription: qHTS assay to identify small molecule agonists of the androgen receptor (AR) signaling pathway in the presence of an antagonist (AID 1259381); further: nearly all actives have a fitted effect of over 15% in size
- measurementContext: MDA-kb2 MMTV-luciferase, AR agonist + nilutamide, 16 h; series mostly up to 42.5 µM
Calls of active or inactive are those of the source. The call rests on the fitted dose curve.
Bench note: report the call from yes (1) for active, no (0) for inactive

The examples below pair each entry with its known result.
INSERT INTO measurements (compound, assignedclass) VALUES
  ('CN1N=C(C(N)=O)CCC1=O', 'no (0)'),
  ('CN1CCN(c2cc3c(cc2F)c(=O)c(C(=O)O)cn3-c2ccc(F)cc2)CC1', 'yes (1)'),
  ('C=C(C)C(=O)OCCCCCCCC(C)C', 'no (0)'),
  ('CC(NC(CCc1ccccc1)C(=O)O)C(=O)N1C(=O)N(C)CC1C(=O)O (stereo unspecified)', 'no (0)'),
  ('CCc1cccc2c(CCO)c[nH]c12', 'no (0)');

## Input What outcome does the record of this test show for CC(C)NC(=O)NC(C)C ?
## Output no (0)

---

- methodDescription: qHTS RealTime-Glo MT Cell Viability Assay in HEK293 cells - 32 hour (AID 1224868); further: top concentration of the series differs between compounds; on the % scale 0 is the no-effect control and ±100 the full control effect; nearly all actives have a fitted effect of over 50% in size
- measurementContext: RealTime-Glo luminescence; series mostly up to 76.8 µM
Records with an inconclusive call do not appear. Active and inactive are the calls of the source. The call rests on the fitted dose curve; in most records, active means well fitted cell-killing curve with a large enough effect in the repeat runs; inconclusive means weak or mixed curves, or effect the other way; inactive means flat fitted curve, though single readings scatter.
outcomeMeasure: activity change, negative = cytotoxic

Please review the following examples before continuing.
INSERT INTO measurements (compound, outcomemeasure, measurement) VALUES
  ('CCC(C)S (stereo unspecified)', 'activity change, negative = cytotoxic', '3.1% [at 2.72 µM] (inactive)'),
  ('Cc1cc(O)cc2c1O[C@](C)(CCC[C@H](C)CCC[C@H](C)CCCC(C)C)CC2', 'activity change, negative = cytotoxic', 'inactive'),
  ('C1CN(CCOCCN2CCOCC2)CCO1', 'activity change, negative = cytotoxic', 'inactive'),
  ('Cc1cccn2c(=O)c(-c3nnn[nH]3)cnc12', 'activity change, negative = cytotoxic', '-0.452% [at 15.8 µM] (inactive)'),
  ('CC(=O)OC/C=C(\C)CC/C=C(\C)CCC=C(C)C', 'activity change, negative = cytotoxic', 'inactive');

Now examine the next entry.
## Input Could you tell me which activity change, negative = cytotoxic is on file for O=C(O)COc1nn(Cc2ccccc2)c2ccccc12 ?
## Output inactive

---

- methodDescription: qHTS assay for identifying genotoxic compounds that show differential cytotoxicity against isogenic chicken DT40 cell lines with known DNA damage response pathways - wild type cell line (AID 743012); further: on the % scale 0 is the no-effect control and ±100 the full control effect; nearly all actives have a fitted effect of over 60% in size
- measurementContext: DT40 wild type chicken cells viability, CellTiter-Glo, 40 h; series mostly up to 68.4 µM
Results filed as inconclusive are left out. Activity calls are given as the source filed them. The call rests on the fitted dose curve; in most records, active means well fitted cell-killing curve with a large enough effect in the repeat runs; inconclusive means weak or mixed curves, or effect the other way; inactive means no such curve, though single readings can be large or run the other way.
Bench note: report the call from active, inactive

The examples below pair each entry with its known result.
INSERT INTO assay_data (molecule, assignedclass) VALUES
  ('CCc1ccc(O)c(OC)c1', 'inactive'),
  ('O=C(O)CN(CCOCCOCCN(CC(=O)O)CC(=O)O)CC(=O)O', 'inactive'),
  ('O=S(O)CO', 'inactive');

## Input What outcome does the record of this test show for OC[C@]1(O)OC[C@@H](O)[C@H](O)[C@@H]1O ?
## Output inactive

## Input Same thing, different molecule: N[C@H](C(=O)O)c1ccc(O)cc1
## Output inactive

## Input Same thing, different molecule: CC(=O)Nc1ccc(S(N)(=O)=O)cc1
## Output inactive

## Input Same thing, different molecule: c1ccc(CC2=NCCN2)cc1
## Output inactive

## Input Same thing, different molecule: CC(=O)Nc1c(I)cc(I)c(C(=O)O)c1I
## Output inactive

## Input Same thing, different molecule: NCCCNCCSP(=O)(O)O
## Output inactive

## Input Same thing, different molecule: COc1c(N2C[C@@H]3CCCN[C@@H]3C2)c(F)cc2c(=O)c(C(=O)O)cn(C3CC3)c12
## Output inactive

## Input Same thing, different molecule: O=C(O)CCCl
## Output inactive

## Input Same thing, different molecule: COC(=O)CCSCCC(=O)OC
## Output inactive

---

- targetOrSystem: Aryl hydrocarbon receptor (Homo sapiens) (UniProt P35869)
- Sequence (P35869 whole entry, looked up): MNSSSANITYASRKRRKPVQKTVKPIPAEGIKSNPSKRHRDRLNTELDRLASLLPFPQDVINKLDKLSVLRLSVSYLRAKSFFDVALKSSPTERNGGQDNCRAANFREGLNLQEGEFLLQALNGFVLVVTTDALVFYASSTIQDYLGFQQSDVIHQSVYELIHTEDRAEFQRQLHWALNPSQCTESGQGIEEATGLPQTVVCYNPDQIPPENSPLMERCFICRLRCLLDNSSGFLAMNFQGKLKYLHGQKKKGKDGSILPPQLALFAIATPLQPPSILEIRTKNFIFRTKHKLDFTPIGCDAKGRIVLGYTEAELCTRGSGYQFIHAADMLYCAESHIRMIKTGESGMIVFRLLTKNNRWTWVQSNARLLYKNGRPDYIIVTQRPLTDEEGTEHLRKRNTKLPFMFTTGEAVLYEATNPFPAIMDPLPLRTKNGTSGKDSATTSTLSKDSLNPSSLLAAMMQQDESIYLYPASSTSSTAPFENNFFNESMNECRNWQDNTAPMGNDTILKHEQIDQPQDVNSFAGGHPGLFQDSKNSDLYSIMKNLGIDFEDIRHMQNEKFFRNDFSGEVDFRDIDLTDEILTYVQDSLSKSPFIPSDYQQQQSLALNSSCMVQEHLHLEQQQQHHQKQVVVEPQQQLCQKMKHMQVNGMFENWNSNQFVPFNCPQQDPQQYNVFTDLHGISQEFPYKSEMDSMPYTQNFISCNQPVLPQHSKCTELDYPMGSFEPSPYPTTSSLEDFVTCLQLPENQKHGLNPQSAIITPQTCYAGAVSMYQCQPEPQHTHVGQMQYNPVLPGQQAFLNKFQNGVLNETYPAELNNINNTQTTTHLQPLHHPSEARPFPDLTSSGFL
- methodDescription: qHTS assay to identify small molecule that activate the aryl hydrocarbon receptor (AhR) signaling pathway (AID 743085);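 further: HG2L7.5c1 human HepG2 liver cells with stably integrated DRE-driven firefly reporter; on the % scale 0 is the no-effect control and ±100 the full control effect; nearly all actives have a fitted effect of over 15% in size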
- measurementContext: HepG2 AhR-luc (HG2L7.5c1), luciferase, 24 h; series mostly up to 70.3 µM
- Description: U.S. Tox21 Program National Center for Advancing Translational Sciences [NCATS] NIH Chemical Genomics Center [NCGC] U.S. Environmental Protection Agency [EPA] National Institutes of Environmental Health Sciences [NIEHS] National Toxicology Program [NTP] U.S. Food and Drug Administration [FDA] Tox21 Assay overview: The Aryl hydrocarbon Receptor (AhR), a member of the family of basic helix-loop-helix transcription factors, is crucial to adaptive responses to environmental changes. […]
Results filed as inconclusive are left out. Active and inactive are the calls of the source. The call rests on the fitted dose curve; in most records, active means well fitted activation curve with a large enough effect in the repeat runs; inconclusive means weak or mixed curves; inactive means no such curve, though single readings can be large or run the other way.
outcomeMeasure: outcome

Please review the following examples before continuing.
INSERT INTO measurements (compound, outcomemeasure, measurement) VALUES
  ('COc1c(N2C[C@@H]3CCCN[C@@H]3C2)c(F)cc2c(=O)c(C(=O)O)cn(C3CC3)c12', 'outcome', 'inactive'),
  ('O=[N+]([O-])c1ccc(F)cc1F', 'outcome', 'inactive'),
  ('CC(C(=O)O)c1ccc(CC2CCCC2=O)cc1 (stereo not given)', 'outcome', 'inactive'),
  ('CN1CCN(c2cc3c(cc2F)c(=O)c(C(=O)O)cn3-c2ccc(F)cc2)CC1', 'outcome', 'inactive'),
  ('NCCCNCCSP(=O)(O)O', 'outcome', 'inactive'),
  ('CCCCCOC(=O)CCCCC', 'outcome', 'inactive'),
  ('O=C1CCCN1C1CCCCC1', 'outcome', 'inactive'),
  ('OCCCC1CCCCC1', 'outcome', 'inactive');

## Input Could you tell me which outcome is on file for CCCc1cc(C(N)=S)ccn1 ?
## Output inactive

## Input Same thing, different compound: CCN1CCC[C@H]1CNC(=O)c1c(O)c(Cl)cc(Cl)c1OC
## Output inactive

---

- targetOrSystem: Thyrotropin receptor (Homo sapiens) (UniProt P16473)
- Sequence (P16473 whole entry, looked up): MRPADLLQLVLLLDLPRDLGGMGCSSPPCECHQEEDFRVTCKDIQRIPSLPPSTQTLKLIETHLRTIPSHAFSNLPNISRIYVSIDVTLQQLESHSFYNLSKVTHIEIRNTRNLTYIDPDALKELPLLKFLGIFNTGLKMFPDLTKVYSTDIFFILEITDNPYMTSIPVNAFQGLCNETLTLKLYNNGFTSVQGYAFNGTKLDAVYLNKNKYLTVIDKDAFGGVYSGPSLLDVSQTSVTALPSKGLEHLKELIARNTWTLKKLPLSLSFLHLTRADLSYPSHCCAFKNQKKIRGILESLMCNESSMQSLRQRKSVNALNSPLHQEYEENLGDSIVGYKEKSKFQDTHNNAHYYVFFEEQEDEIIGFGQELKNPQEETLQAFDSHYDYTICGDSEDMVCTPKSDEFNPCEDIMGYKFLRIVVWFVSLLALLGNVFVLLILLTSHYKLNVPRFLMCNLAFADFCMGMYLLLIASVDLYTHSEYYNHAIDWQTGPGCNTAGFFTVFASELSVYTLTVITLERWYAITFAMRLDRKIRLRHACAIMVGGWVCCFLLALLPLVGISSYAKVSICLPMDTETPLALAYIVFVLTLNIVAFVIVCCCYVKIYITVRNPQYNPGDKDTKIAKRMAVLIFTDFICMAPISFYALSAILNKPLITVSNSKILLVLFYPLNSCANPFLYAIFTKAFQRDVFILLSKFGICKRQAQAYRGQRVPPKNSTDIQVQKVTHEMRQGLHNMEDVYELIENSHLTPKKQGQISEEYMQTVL
- methodDescription: qHTS assay to identify small molecule agonists of the thyroid stimulating hormone receptor (TSHR) signaling pathway (AID 1224843); further: on the % scale 0 is the no-effect control and ±100 the full control effect; nearly all actives have a fitted effect of over 45% in size
- measurementContext: TSHR-HEK293 cells, cAMP HTRF, agonist mode, 30 min; series mostly up to 42.5 µM
Inconclusive results are not listed. Activity calls are given as the source filed them. Calls follow the shape of the full dose curve.
outcomeMeasure: activation

Please review the following examples before continuing.
INSERT INTO results (molecule, measurement) VALUES
  ('CC(=O)c1ccccc1O', 'inactive'),
  ('CCCC(=O)O[C@]1(C(=O)CO)CC[C@H]2[C@@H]3CCC4=CC(=O)CC[C@]4(C)[C@H]3[C@@H](O)C[C@@]21C', 'inactive'),
  ('CCCCNC(=O)NCCCC', 'inactive'),
  ('CCC(C)S (stereo not given)', '-2.63% [at 3.27 µM] (inactive)');

## Input Could you tell me which activation is on file for CC(C(=O)O)c1ccc(CC2CCCC2=O)cc1 (stereo not given) ?
## Output inactive

---

- targetOrSystem: Estrogen receptor (Homo sapiens)
- methodDescription: qHTS assay to identify small molecule agonists of the estrogen receptor alpha (ER-alpha) signaling pathway in the presence of an antagonist (AID 1259383); further: top concentration of the series differs between compounds; on the % scale 0 is the no-effect control and ±100 the full control effect; nearly all actives have a fitted effect of over 15% in size
- measurementContext: VM7Luc4E2 cells, ERE-luciferase, +ICI-182,780, 22 h; series mostly up to 92.4 µM
- From the text: National Center for Advancing Translational Sciences [NCATS] NIH Chemical Genomics Center [NCGC] U.S. Environmental Protection Agency [EPA] National Institutes of Environmental Health Sciences [NIEHS] National Toxicology Program [NTP] Assay overview: Estrogen receptor (ER), a member of nuclear hormone receptor plays an important role in development, metabolic homeostasis and reproduction. Two subtypes of ER, ER-alpha and ER-beta, have similar expression patterns with some uniqueness in both types. […]
Activity calls are given as the source filed them. The call rests on the fitted dose curve.
outcomeMeasure: activation

INSERT INTO measurements (molecule, measurement) VALUES
  ('NS(=O)(=O)c1cc2c(cc1Cl)NC(C1CC3C=CC1C3)NS2(=O)=O (stereo not drawn)', 'inactive'),
  ('C[C@@H]1CCN(C(=O)[C@H](CCCN=C(N)N)NS(=O)(=O)c2cccc3c2NC[C@H](C)C3)[C@@H](C(=O)O)C1', 'inactive'),
  ('Nc1c2c(nc3ccccc13)CCCC2O (stereo not drawn)', 'inactive');

---

- targetOrSystem: Aromatase (Homo sapiens)
- methodDescription: qHTS assay to identify aromatase inhibitors (AID 743083); further: on the % scale 0 is the no-effect control and ±100 the full control effect; nearly all actives have a fitted effect of over 55% in size
- measurementContext: MCF-7 aro ERE, testosterone-driven ERE luciferase, 24 h; series mostly up to 70.3 µM
Records with an inconclusive call do not appear. Calls of active or inactive are those of the source. The call rests on the fitted dose curve; in most records, active means well fitted inhibition curve with a large enough effect in the repeat runs; inconclusive means weak or mixed curves; inactive means no such curve, though single readings can be large or run the other way.
Bench note: report the call from YES (active), NO (inactive)

INSERT INTO results (compound, assignedclass) VALUES
  ('CC/C=C\CCOC(C)=O', 'NO');

## Input What outcome does the record of this test show for O=C(O)c1ccccc1OP(=O)(O)O ?
## Output NO

## Input Same thing, different compound: CCCCOCCOCCOCCCC
## Output NO
